assay text: basal HepG2 mitochondrial membrane potential changes, profiling panel, cell-based, JC-1 fluorescence, 24 h, 100 nL compound (AID 1167); further: test concentration not given here
details: higher = more signal

>  <molecule>
COc1cccc([C@@H]2Oc3ccc(Br)cc3C(=O)[C@H]2O)c1

>  <z-score>
-3.15

$$$$
>  <molecule>
C[C@@H]1C=CCC(=O)OC[C@H](C)C(=O)OC[C@H]2O[C@H]1C=C[C@H]2O

>  <z-score>
0.482

$$$$
>  <molecule>
CCOC(=O)C[C@H]1[C@H](OC(=O)c2cc3ccccc3oc2=O)[C@@H](NC(=O)c2ccc3ccccc3n2)c2cc(OCCCO)ccc2N1C(=O)c1ccccc1

>  <z-score>
-0.187

$$$$
>  <molecule>
CC(C)N1CC=CC23O[C@@H]4C=CCCOC(=O)C4[C@H]2C(=O)N(CCCCCCO)[C@@H]3C1=O (stereo partly drawn)

>  <z-score>
0.614

$$$$
>  <molecule>
CCN1C(=O)[C@H]2[C@H]3[C@H](O)[C@H](O)CC(=NO[C@@H]4O[C@H](CO)[C@@H](O)[C@H](O)[C@H]4O)[C@@H]3CC[C@H]2C1=O

>  <z-score>
-0.608

$$$$
>  <molecule>
COC(=O)CC=C[C@H](C)[C@H](CO)NS(=O)(=O)c1ccc(C)cc1

>  <z-score>
-0.976

$$$$
>  <molecule>
CCCCC(=C=CC[C@H](O)c1ccccc1OCCO)C[C@H](O)COCc1ccccc1

>  <z-score>
-0.0498

$$$$
>  <molecule>
NC(=O)NCC#Cc1ccc2c(c1)[C@]1(C(=O)N2)[C@H](c2ccc(O)cc2)N2[C@H](c3ccccc3)[C@H](c3ccccc3)OC(=O)[C@H]2[C@@H]1C(=O)N1CCCCCCC1

>  <z-score>
-1.08

$$$$

====

assay text: small-molecule microarray binders of probe aCHRDL2, primary screen, biochemical, biotinylated probe, 635/667 nm fluorescence (AID 1100)
details: higher = more signal
composite z-score for assorted molecules

>  <molecule>
CCN(CC)c1ccc(N2CC=CC34O[C@@H]5/C=C\CCC(C)OC(=O)C5[C@H]3C(=O)N(CCCO)[C@@H]4C2=O)cc1 (stereo not given in full)

>  <composite z-score>
0.325

$$$$
>  <molecule>
Cn1cccc1C(O)C1C=CC2C(=O)NC(=O)C2N1Nc1ccccn1 (stereo not given)

>  <composite z-score>
0.0176

$$$$
>  <molecule>
COc1ccc(O[C@H]2C=C[C@@H](c3ccccc3)O[C@@H]2COC(=O)CCC(C)=NO[C@H](C)c2cn([C@@H]3COC[C@H]3O)nn2)cc1

>  <composite z-score>
-0.791

$$$$
>  <molecule>
CCCC=C(CCC)[C@@H](NC(=O)c1ccc(-c2ccccc2)cc1)c1ccc(C(=O)OC)cc1

>  <composite z-score>
1

$$$$
>  <molecule>
Cc1cc(C)c(-c2cc([C@H](C)ON=C3[C@H]4CCn5c(=O)n(-c6ccccc6)c(=O)n5[C@H]4[C@H](O)[C@@H]4O[C@H]34)on2)c(C)c1

>  <composite z-score>
-0.48

$$$$
>  <molecule>
CO[C@H]1COC(=O)[C@@H]2CCCN2C(=O)CC=C[C@@H](C)[C@H](OC)COC(=O)CC=C[C@@H]1C

>  <composite z-score>
-1.28

$$$$
>  <molecule>
CC(C)NC(=O)[C@@H]1c2ccccc2C(=O)N(CC23CC4CC(CC(C4)C2)C3)[C@H]1c1ccc(CO)cc1

>  <composite z-score>
0.46

$$$$
>  <molecule>
CC(CCC(=O)OC[C@H]1O[C@H](C#Cc2ccccc2)C=C[C@@H]1Oc1ccc(C)cc1)=NOC[C@@H](O)[C@H]1O[C@@H]2OC(C)(C)O[C@@H]2[C@H]1O

>  <composite z-score>
-0.505

$$$$
>  <molecule>
COc1ccc(O[C@H]2C=C[C@@H](c3ccccc3)O[C@@H]2COC(=O)CCC(C)=NOC(C)CN2CCCCc3nc(C)c(C)cc32)cc1 (stereo not given in full)

>  <composite z-score>
0.208

$$$$
>  <molecule>
C[C@@H]1CC[C@H]2C(=O)O[C@H](COc3ccc(C(C)(C)C)cc3)CN2[C@H]1c1ccc(Br)cc1

>  <composite z-score>
-0.299

$$$$
>  <molecule>
CCOC(=O)[C@H](Cc1ccccc1)NC(=O)CCC1CC(OC(=O)NCc2ccc3c(c2)OCO3)CC2(CCCC(COC(=O)NCC3CCCCC3)O2)O1 (stereo not given in full)

>  <composite z-score>
-0.5

$$$$
>  <molecule>
O=C1C[C@@H](O)[C@@H](O)[C@@H]2[C@@H]3C(=O)N(Cc4ccc5c(c4)OCO5)C(=O)[C@@H]3CC[C@@H]12

>  <composite z-score>
-0.562

$$$$
>  <molecule>
COC(=O)[C@H](C)NC(=O)CCC1CC(OC(=O)NCCc2ccc(F)cc2)CC2(CCCC(COC(=O)NCCc3ccc(Cl)cc3)O2)O1 (stereo not given in full)

>  <composite z-score>
-0.615

$$$$
>  <molecule>
CN1C(=O)C2C=CC(C(O)c3ccc(I)cc3)N(NC(=O)OC(C)(C)C)C2C1=O (stereo not given)

>  <composite z-score>
1.05

$$$$
>  <molecule>
CC(C)(C)N1CC=CC23O[C@@H]4C=CCCOC(=O)C4[C@H]2C(=O)N(CCCCCO)[C@@H]3C1=O (stereo not given in full)

>  <composite z-score>
0.0199

$$$$
